# assay.notes: Cmax in male Beagle dog at 70 mg/kg, po measured after 1 month repeated dosing by LC-MS/MS analysis
# setup.conditions: in vivo
reported.property: Cmax at 1 month (ng/mL)
# unit: ng/mL | format: bare number

Fill in Cmax at 1 month for record `C[C@]1(c2cc(NC(=O)c3ccc(C#N)cn3)ccc2F)N=C(N)CO[C@H]1C(F)(F)F`
1970

* * *

# assay.notes: Cmax in Swiss mouse at 10 mg/kg, po administered as bolus dose by LC-MS/MS analysis
# Type: ADME, organism-based
# Design: dose 10 mg/kg, route oral
# setup.conditions: in vivo
reported.property: Cmax (nM)
# unit: nM | format: bare number

Fill in Cmax for record `C[C@]1(c2cc(NC(=O)c3ccc(C#N)cn3)ccc2F)N=C(N)CO[C@H]1C(F)(F)F`
333

* * *

# Tested on: MDR1 (P-gp) (Homo sapiens)
# assay.notes: Apparent permeability across apical to basolateral side in pig LLC cells transfected with human MDR1 at 5 uM in absence of elacridar by LC-MS/MS analysis
# setup.conditions: LLC-PK1
Each item that follows carries a reported Papp A→B at 5 µM.

Below, 2 compounds whose answers are already recorded.
COc1cnc(C(=O)Nc2ccc(F)c([C@@]3(C)N=C(N)CO[C@H]3C(F)F)c2)cn1 :: 4.8 ×10⁻⁶ cm/s
COc1cnc(C(=O)Nc2ccc(F)c([C@@]3(C)N=C(N)COC3=C(F)F)c2)cn1 :: 8.63 ×10⁻⁶ cm/s

Fill in Papp A→B at 5 µM for record `C[C@]1(c2cc(NC(=O)c3ncc(C#N)cc3Cl)ccc2F)N=C(N)CO[C@@H]1F`
3.06 ×10⁻⁶ cm/s

Fill in Papp A→B at 5 µM for record `COc1cnc(C(=O)Nc2ccc(F)c([C@@]3(C)N=C(N)CO[C@H]3C(F)(F)F)c2)cn1`
13.7 ×10⁻⁶ cm/s

Fill in Papp A→B at 5 µM for record `C[C@]1(c2cc(NC(=O)c3ncc(C#N)cc3F)ccc2F)N=C(N)CO[C@@H]1F`
1.05 ×10⁻⁶ cm/s

* * *

# assay.notes: Ratio of drug level in liver to plasma of Sprague-Dawley rat at 10 mg/kg, po
# Format: ADME, organism-based
reported.property: Kp
// no unit, no text: just the number

Fill in Kp for record `C[C@]1(c2cc(NC(=O)c3ccc(C#N)cn3)ccc2F)N=C(N)CO[C@H]1C(F)(F)F`
31

* * *

# assay.notes: Ratio of drug level in lung to plasma of Sprague-Dawley rat at 10 mg/kg, po
# Format: ADME, organism-based
reported.property: Kp
// no unit, no text: just the number

Fill in Kp for record `C[C@]1(c2cc(NC(=O)c3ccc(C#N)cn3)ccc2F)N=C(N)CO[C@H]1C(F)(F)F`
169

* * *

# assay.notes: AUC (0 to 24 hrs) in male Beagle dog at 70 mg/kg, po measured after 1 month repeated dosing by LC-MS/MS analysis
# setup.conditions: in vivo
reported.property: AUC at 24 h (ng·h/mL)
# unit: ng·h/mL | format: bare number

Fill in AUC at 24 h for record `C[C@]1(c2cc(NC(=O)c3ccc(C#N)cn3)ccc2F)N=C(N)CO[C@H]1C(F)(F)F`
26300

* * *

# assay.notes: Fraction unbound in rat brain at 5 uM after 5 hrs by HPLC-MS/MS method based rapid equilibrium dialysis
# Format: ADME, tissue-based
reported.property: fraction unbound at 5 h, 5 µM
// no unit, no text: just the number

Fill in fraction unbound at 5 h, 5 µM for record `COc1cnc(C(=O)Nc2ccc(F)c([C@@]3(C)N=C(N)CO[C@H]3C(F)F)c2)cn1`
0.047

Fill in fraction unbound at 5 h, 5 µM for record `COc1cnc(C(=O)Nc2ccc(F)c([C@@]3(C)N=C(N)COC3=C(F)F)c2)cn1`
0.017

Fill in fraction unbound at 5 h, 5 µM for record `C[C@]1(c2cc(NC(=O)c3ccc(C#N)cn3)ccc2F)N=C(N)CO[C@H]1C(F)(F)F`
0.03

Fill in fraction unbound at 5 h, 5 µM for record `COc1cnc(C(=O)Nc2ccc(F)c([C@@]3(C)N=C(N)CO[C@H]3C(F)(F)F)c2)cn1`
0.02

Sourced from ChEMBL document CHEMBL4130624
